- SUBJECT OF TEST: human, recombinant full-length HDAC6 (Homo sapiens (Human), UniProt Q9UBN7)
- Sequence (Q9UBN7 whole entry): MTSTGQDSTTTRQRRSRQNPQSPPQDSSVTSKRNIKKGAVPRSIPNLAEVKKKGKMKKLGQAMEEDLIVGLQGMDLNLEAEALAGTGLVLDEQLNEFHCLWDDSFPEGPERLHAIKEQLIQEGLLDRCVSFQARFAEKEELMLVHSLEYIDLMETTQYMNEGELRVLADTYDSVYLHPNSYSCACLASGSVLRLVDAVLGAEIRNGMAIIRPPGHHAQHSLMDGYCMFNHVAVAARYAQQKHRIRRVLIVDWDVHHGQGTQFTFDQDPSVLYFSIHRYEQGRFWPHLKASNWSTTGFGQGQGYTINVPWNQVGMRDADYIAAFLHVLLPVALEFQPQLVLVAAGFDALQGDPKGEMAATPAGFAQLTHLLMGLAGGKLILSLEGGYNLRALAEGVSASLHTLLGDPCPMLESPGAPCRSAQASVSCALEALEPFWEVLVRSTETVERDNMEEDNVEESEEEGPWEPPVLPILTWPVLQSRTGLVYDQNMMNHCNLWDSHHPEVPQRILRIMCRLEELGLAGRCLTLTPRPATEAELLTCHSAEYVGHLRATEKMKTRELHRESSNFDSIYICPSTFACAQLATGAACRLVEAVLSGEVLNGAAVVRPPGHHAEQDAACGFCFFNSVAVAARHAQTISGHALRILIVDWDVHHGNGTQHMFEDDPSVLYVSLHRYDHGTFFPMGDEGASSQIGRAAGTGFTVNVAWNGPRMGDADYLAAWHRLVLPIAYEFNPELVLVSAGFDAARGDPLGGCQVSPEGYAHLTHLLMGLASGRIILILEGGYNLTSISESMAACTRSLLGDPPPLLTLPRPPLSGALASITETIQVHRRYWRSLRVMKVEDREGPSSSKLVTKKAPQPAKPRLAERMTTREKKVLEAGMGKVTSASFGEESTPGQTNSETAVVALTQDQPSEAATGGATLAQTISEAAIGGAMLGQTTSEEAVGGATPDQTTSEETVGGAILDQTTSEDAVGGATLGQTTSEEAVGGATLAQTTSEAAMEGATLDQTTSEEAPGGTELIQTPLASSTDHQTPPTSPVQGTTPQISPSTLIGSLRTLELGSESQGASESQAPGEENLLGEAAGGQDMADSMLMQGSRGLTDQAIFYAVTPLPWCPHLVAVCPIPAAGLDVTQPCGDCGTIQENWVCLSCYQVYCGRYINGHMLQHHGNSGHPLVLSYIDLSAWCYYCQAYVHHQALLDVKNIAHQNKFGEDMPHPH
- PROTOCOL SUMMARY: HDAC inhibition assay, HDAC6
- Type: biochemical
- CONDITION DESCRIPTION: Table 1
RECORDED METRIC: Fold Selective (HDAC1/HDAC6)
Output: the number by itself.

COc1ccccc1NC(=O)N(CCc1c[nH]c2ccccc12)Cc1ccc(C(=O)NO)cc1	19
COCCN(Cc1ccc(C(=O)NO)cc1)C(=O)Nc1ccccc1	243

Form field: reported Fold Selective (HDAC1/HDAC6) of "Cc1cc(NC(=O)NCc2ccc(C(=O)NO)cc2)no1"
145

Form field: reported Fold Selective (HDAC1/HDAC6) of "COc1ccc(NC(=O)NCc2ccc(C(=O)NO)cc2)cc1"
128

Form field: reported Fold Selective (HDAC1/HDAC6) of "CCCCN(C(=O)NCc1ccc(C(=O)NO)cc1)c1ccccc1"
322

Form field: reported Fold Selective (HDAC1/HDAC6) of "COc1ccccc1NC(=O)N(CCCN(C)C)Cc1ccc(C(=O)NO)cc1"
6

----------
- SUBJECT OF TEST: human, recombinant full-length HDAC6 (Homo sapiens (Human), UniProt Q9UBN7)
- PROTOCOL SUMMARY: HDAC inhibition assay, HDAC6;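 also: recombinant full-length human HDAC1 and HDAC6 made in Sf9 cells, compound preincubated 5-10 min then substrate reaction 2 h at 30 °C, ten threefold dilutions from 30 µM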
- Format: biochemical
- CONDITION DESCRIPTION: Table 1
RECORDED METRIC: Fold Selective (HDAC1/HDAC6)
Output: the number by itself.

Some compounds with recorded Fold Selective (HDAC1/HDAC6):
COc1ccccc1NC(=O)N(CCc1ccc(O)cc1)Cc1ccc(C(=O)NO)cc1 [Compound 5d]	292
O=C(NO)c1ccc(CN(CCc2ccccc2)C(=O)Nc2ccccc2)cc1 [Compound 5h]	222

Form field: reported Fold Selective (HDAC1/HDAC6) of Cc1ccnc(NC(=O)NCc2ccc(C(=O)NO)cc2)c1 [Compound 9b]
263

----------
- SUBJECT OF TEST: UniProt:O15379
- Sequence (O15379 whole entry, canonical isoform): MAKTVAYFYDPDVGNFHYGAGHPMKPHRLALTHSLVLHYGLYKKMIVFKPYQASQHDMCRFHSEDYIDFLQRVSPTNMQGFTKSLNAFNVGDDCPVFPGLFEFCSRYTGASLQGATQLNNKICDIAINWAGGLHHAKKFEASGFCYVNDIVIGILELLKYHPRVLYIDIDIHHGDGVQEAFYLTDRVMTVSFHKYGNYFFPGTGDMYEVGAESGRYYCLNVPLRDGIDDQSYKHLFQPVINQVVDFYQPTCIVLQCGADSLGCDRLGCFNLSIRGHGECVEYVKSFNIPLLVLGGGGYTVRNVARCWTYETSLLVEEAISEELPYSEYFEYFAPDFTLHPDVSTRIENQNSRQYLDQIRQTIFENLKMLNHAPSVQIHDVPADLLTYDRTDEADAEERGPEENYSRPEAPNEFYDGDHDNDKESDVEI
- Sequence (Q9Y618 395-489 partner): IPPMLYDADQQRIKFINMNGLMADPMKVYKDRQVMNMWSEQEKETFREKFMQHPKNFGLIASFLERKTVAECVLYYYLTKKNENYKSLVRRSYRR
- PROTOCOL SUMMARY: HDAC isoform profile, HDAC3
- CONDITION DESCRIPTION: Table 3 isoform profile
RECORDED METRIC: IC50 (µM)
// return numeric value only (unit: µM, not printed)

Form field: reported IC50 of "CCCCN(Cc1ccc(C(=O)NO)cc1)C(=O)Nc1ccccc1"
6.68

----------
- SUBJECT OF TEST: human, recombinant full-length HDAC1 (Homo sapiens (Human), UniProt Q13547)
- Sequence (Q13547 whole entry): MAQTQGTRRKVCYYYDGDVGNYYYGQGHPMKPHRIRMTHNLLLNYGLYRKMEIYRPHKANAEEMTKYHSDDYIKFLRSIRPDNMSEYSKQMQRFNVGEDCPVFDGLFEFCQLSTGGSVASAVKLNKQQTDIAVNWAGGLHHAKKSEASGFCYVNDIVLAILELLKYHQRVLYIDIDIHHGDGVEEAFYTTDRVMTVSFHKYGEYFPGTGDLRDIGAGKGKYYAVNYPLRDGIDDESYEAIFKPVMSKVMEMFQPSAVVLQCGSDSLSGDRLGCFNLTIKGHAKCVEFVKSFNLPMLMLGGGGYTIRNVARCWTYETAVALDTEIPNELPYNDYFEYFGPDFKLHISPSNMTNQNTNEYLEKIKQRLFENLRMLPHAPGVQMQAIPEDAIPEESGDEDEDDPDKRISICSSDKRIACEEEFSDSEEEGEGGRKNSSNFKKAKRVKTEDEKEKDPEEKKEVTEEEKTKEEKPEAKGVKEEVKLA
- PROTOCOL SUMMARY: HDAC inhibition assay, HDAC1
- Assay type: biochemical
- CONDITION DESCRIPTION: Table 2, cyclic urea compounds
RECORDED METRIC: pIC50
Quick note: pIC50 means taking -log10 of the concentration in moles per liter.

CC(C)[C@@H]1C(=O)N(c2ccccc2)C(=O)N1Cc1ccc(C(=O)NO)cc1 [Compound 10b]	4.93
O=C(NO)c1ccc(CN2C(=O)N[C@@H](Cc3ccccc3)C2=O)cc1 [Compound 11a]	5.12

Next compound, pIC50 to be filled in.
Form field: reported pIC50 of COc1ccccc1N1C(=O)N(Cc2ccc(C(=O)NO)cc2)C(C)(C)C1=O [Compound 10a]
4.54

----------
- SUBJECT OF TEST: human, recombinant full-length HDAC6 (Homo sapiens (Human))
- PROTOCOL SUMMARY: HDAC inhibition assay, HDAC6
- Assay type: biochemical
- CONDITION DESCRIPTION: Table 2, cyclic urea compounds
Listing of entries alongside the reported pIC50.
Quick note: pIC50 means taking -log10 of the concentration in moles per liter.

Form field: reported pIC50 of COc1ccccc1N1C(=O)N(Cc2ccc(C(=O)NO)cc2)C(C)(C)C1=O [Compound 10a]
7.13

Form field: reported pIC50 of O=C(NO)c1ccc(CN2C(=O)N[C@@H](Cc3ccccc3)C2=O)cc1 [Compound 11a]
7.59

Form field: reported pIC50 of CC(C)[C@@H]1C(=O)N(c2ccccc2)C(=O)N1Cc1ccc(C(=O)NO)cc1 [Compound 10b]
7.65
